# System: HCC 2998
# procedure-summary: NCI tumour cell line growth inhibition, 48 h
Activity calls are given as the source filed them. No stated cut-off is given here; in the data, active = GI50 up to about 1.1 µM and inactive = higher.
experimental-readout: GI50

[
  {
    "compound": "O=C1NN=C(c2ccc([N+](=O)[O-])cc2)C1n1nc(-c2ccccc2)c2ccccc2c1=O (configuration not stated)",
    "result": "> 100 µM (inactive)"
  },
  {
    "compound": "CO/C(C)=N/CCC1=CCCCC1",
    "result": "52.5 µM (inactive)"
  },
  {
    "compound": "COc1cc2c[n+](C)c3c4cc(OC)c(OC)cc4ccc3c2cc1OC",
    "result": "> 100 µM (inactive)"
  },
  {
    "compound": "COC(=O)[C@]12CC3C=CC1N(C3)C(CBr)c1c2n(S(=O)(=O)c2ccccc2)c2ccccc12 (some centres not stated)",
    "result": "> 100 µM (inactive)"
  },
  {
    "compound": "Cc1nn(-c2ccccc2)c(C)c1/C=N/NC(=O)c1sc(=S)n(-c2ccccc2)c1N",
    "result": "4.61 µM (inactive)"
  },
  {
    "compound": "O=c1c2cc(-c3ccccc3)sc2nc2n1N=C(c1ccccc1)CS2",
    "result": "36.5 µM (inactive)"
  },
  {
    "compound": "CC1CC(c2ccc([N+](=O)[O-])cc2)=Nc2ccccc2S1 (configuration not stated)",
    "result": "19.1 µM (inactive)"
  },
  {
    "compound": "CCOC(=O)c1c(-c2ccc(Br)cc2)ccn1C",
    "result": "> 10 µM (inactive)"
  },
  {
    "compound": "COc1ccc(C)cc1C1CCC(=O)O1 (configuration not stated)",
    "result": "> 100 µM (inactive)"
  },
  {
    "compound": "Cc1c[n+]2c3ccccc3c3ccccc3c2s1.[O-][Cl+3]([O-])([O-])[O-]",
    "result": "3.2 µM (inactive)"
  }
]

Given item CCCCNC(=O)Nc1c(C(N)=O)c2n(c1C(=O)OCC)CCCCC2 , the value recorded as its GI50 is > 100 µM (inactive)

Consider CSC(=S)N/N=C(\C)c1ccc(S(=O)(=O)N(C)c2ccccc2)cc1 . Its measured GI50 is > 100 µM (inactive)

GI50 recorded for this compound, COc1ccc(N2C(=O)C(C#N)=C(SC)C(C#N)C2=O)cc1 (configuration not stated) , is > 100 µM (inactive)

Lab note: measured GI50 of O=C(Nc1ccc2c(c1)oc(=O)c1ccccc12)C(Cl)Cl was 63.5 µM (inactive)

Looking up NNC1=Nc2ccc(Cl)cc2C(=S)N2CSCC12 (configuration not stated) , I see its GI50 listed as > 100 µM (inactive)

// GI50 value for CCOC(=O)c1cnc2oc(-c3ccc(OC)cc3)nn2c1=O : > 100 µM (inactive)

Record COc1ccc2c(c1)/C(=C\c1c(Cl)[nH]c3ccccc13)C(=O)N2 . Reported GI50: 2.68 µM (inactive)

Please fill in: GI50 reported for Cc1c(-c2nc3ccccc3[nH]2)c(=O)n(-c2ccccc2)n1C = > 100 µM (inactive)

Documented GI50 of Cn1cc(-c2ccc3c4ccccc4n(C)c3c2)c2ccccc21 : > 100 µM (inactive)

GET /value?item= Cc1ccc(-c2cc(-c3cc(-c4ccc(C)cc4C)[nH]n3)[nH]n2)c(C)c1 &field=GI50 returns 13.2 µM (inactive)

Just so you know, measured GI50 for COc1cccc2c1C(=O)c1c(O)c3c(c(O)c1C2=O)CC(O)(C(C)=O)CC3O (configuration not stated) came out at 7.24 µM (inactive)

Record summary for C/C(=C\c1ccccc1)C(O)C(=O)c1nc2ccc(Cl)cc2nc1O (configuration not stated) : reported GI50 = > 100 µM (inactive)

====

# reported GI50; entries follow
# Tested on: ACHN
# procedure-summary: NCI tumour cell line growth inhibition, 48 h
Active and inactive are the calls of the source. Rule as the data show it: active = GI50 up to about 1.1 µM and inactive = higher.

# annotated cases, reported GI50 shown
[
  {
    "compound": "CC(C)(C)OC(=O)NCC(=O)N(CCc1ccc(Cl)c(Cl)c1)CCN1CCCC1",
    "result": "19.5 µM (inactive)"
  },
  {
    "compound": "C=C(C)C(=O)OC1C(C(C)CCCO)=C(CO)CC2OC(=O)C(=C)C21 (stereo unspecified)",
    "result": "24.1 µM (inactive)"
  },
  {
    "compound": "ClC1=C(Cc2ccccc2)Cc2ccc3c(c21)CCC3",
    "result": "29.9 µM (inactive)"
  },
  {
    "compound": "CC1NOC(=O)C1/N=N/c1ccccc1Cl (stereo unspecified)",
    "result": "27 µM (inactive)"
  },
  {
    "compound": "CCOc1ccc(NC(=O)/C(=C\\c2ccc(C)cc2)C(C)=O)cc1",
    "result": "> 100 µM (inactive)"
  },
  {
    "compound": "Cc1occc1/C(S)=N\\c1ccc(Cl)c(COC(C)(C)C)c1",
    "result": "17.3 µM (inactive)"
  }
]

Please examine the following record next.
The reported GI50 of the compound O=C(O)CP(=S)(S)c1ccccc1 (stereo unspecified) was > 100 µM (inactive)

====

Listing of recorded GI50 by entry.
# Test system: U-251
# procedure-summary: NCI tumour cell line growth inhibition, 48 h
Activity calls are given as the source filed them. Cut-off read from the data, not from the text of the source: active = GI50 up to about 1.1 µM and inactive = higher.

Some solved cases for reference:
[
  {
    "compound": "COC1=CC23C=CC1[C@@H](c1ccccc1)C2=C(C)C(=O)N3C(=O)NC1CCCCC1 (stereo partly drawn)",
    "result": "16.5 µM (inactive)"
  },
  {
    "compound": "Cn1nc(-c2ccc(S(=O)(=O)N/C(=N/c3ccc(Cl)cc3)NN)s2)cc1C(F)(F)F",
    "result": "14.6 µM (inactive)"
  }
]

Then there is this compound:
GI50 recorded for this compound, C1CCN2CC3CONC3C2C1 (stereo not drawn) , is > 100 µM (inactive)

====

# System: SF-295
# procedure-summary: NCI tumour cell line growth inhibition, 48 h
Calls of active or inactive are those of the source. Cut-off read from the data, not from the text of the source: active = GI50 up to about 1.1 µM and inactive = higher.
experimental-readout: GI50

[
  {
    "compound": "O=S1(=O)OCCOS(=O)(=O)C1C1c2ccccc2-c2ccccc21",
    "experimental-system": "SF-295",
    "GI50": "29 µM (inactive)"
  },
  {
    "compound": "C=C1C(=O)OC2/C=C(/C)C3(O)OC(C)(CC(OC(=O)C(C)C)C12)CC3OC(C)=O (centres undefined)",
    "experimental-system": "SF-295",
    "GI50": "9.75 µM (inactive)"
  },
  {
    "compound": "CCOC(=O)C(C)(C)C(O)C(C)C (centres undefined)",
    "experimental-system": "SF-295",
    "GI50": "> 100 µM (inactive)"
  },
  {
    "compound": "O=C(O)c1cc2cc(OCc3ccccc3)ccc2[nH]1",
    "experimental-system": "SF-295",
    "GI50": "> 100 µM (inactive)"
  }
]

COC(=O)C[C@H](COCc1ccccc1)NC(=O)C[C@H](COCc1ccccc1)NC(=O)OC(C)(C)C yielded GI50 of 34.1 µM (inactive)

Quick note, GI50 for OC1CN2CCS[C@H]2C(O)C1O (some centres undefined) landed at > 100 µM (inactive)

====

# Test system: HCC 2998
# procedure-summary: NCI tumour cell line growth inhibition, 48 h
Active and inactive are the calls of the source. Cut-off read from the data, not from the text of the source: active = GI50 up to about 1.1 µM and inactive = higher. Square brackets hold non-standard residues; d marks the D form. Peptide text beside a SMILES is read from it. * marks the point of attachment. ξ: configuration not given here. NMeN = CN[C@@H](CC(N)=O)C(=O)O; NMeV = CN[C@H](C(=O)O)C(C)C; ξNMeV = CNC(C(=O)O)C(C)C; Boc = CC(C)(C)OC(=O)*; ξNMeA = CNC(C)C(=O)O
experimental-readout: GI50

Field: example entries. Status: answers known.
[
  {
    "compound": "CCCCC#COS(=O)(=O)c1ccc(C)cc1",
    "GI50": "> 100 µM (inactive)"
  },
  {
    "compound": "CN(C)Cc1cc(/N=N/c2ccccc2)ccc1O",
    "GI50": "34.1 µM (inactive)"
  },
  {
    "compound": "CN(C)C(=C1C(Br)=C(Br)C(Br)=C1Br)N(C)C",
    "GI50": "> 100 µM (inactive)"
  }
]

Kindly review the next compound as well.
Sure, the documented GI50 for COC(=O)C(C)N(C)C(=O)[C@H](CC(N)=O)N(C)C(=O)[C@@H]1CCCN1C(=O)[C@H](C(C)C)N(C)C(=O)C(C(C)C)N(C)C(=O)[C@@H](NC(=O)OC(C)(C)C)C(C)C (some centres undefined) (Boc-V[ξNMeV][NMeV]P[NMeN][ξNMeA]-OMe) is > 50 µM (inactive)

Reference for the values: ChEMBL document CHEMBL1201862
